These measurements were taken from patent US12344649B2.

- study.target: PTHR1 (Homo sapiens)
- test.name: β-arrestin2 recruitment BRET assay in transfected HEK293T cells
- Type: cell-based
- Design: Flag (N); Life Technologies Corporation, CA (arrestin cDNA); host or cells: HEK293T (CRL-3216, ATCC)
- run.parameters: relative to PTH [1-34]; HEK293T cells, BRET
- Description: 18-24 hours post transfection, the Luciferase substrate Coelenterazine (NanoLight Technologies, AZ) was added to cells, a baseline BRET measurement was taken after 5 minutes incubation, and then serial dilutions of peptides, diluted in PBS (with 0.5 mM MgCl2+0.1% BSA FAF), were added to cells, and BRET signal was measured every 2 minutes for 30 minutes on Hybrid Multi-Mode Reader (Synergy Neo2, BioTek, VT). Seventy-five peptides were tested in the β-arrestin recruitment assay.
Where no end group is shown, it is not given here.

[
  {
    "ordered.residues": "AVAEIQLMHQRAKWRLEIELLKKLKEILKDVY [Peptide R2-34]",
    "β2-arrestin": "+"
  },
  {
    "ordered.residues": "AVAEIQLMHQRAKWAIQEIGIKITRELLERYL [Peptide R2-42]",
    "β2-arrestin": "+"
  },
  {
    "ordered.residues": "AVAEIQLMHQRAKWKLELELKVKLLEILKDVY [Peptide R2-25]",
    "β2-arrestin": "++"
  },
  {
    "ordered.residues": "AVAEIQLMHQRAKWLEELKLKDDLRKILEDVY [Peptide R2-30]",
    "β2-arrestin": "+"
  },
  {
    "ordered.residues": "GVAMLQIMHDLAKIKQELELKDSMKKILEDVL [Peptide R2-50]",
    "β2-arrestin": "++"
  },
  {
    "ordered.residues": "AVAEIQLMHQRAKWGLDLELRARLREILRDVY [Peptide R2-31]",
    "β2-arrestin": "+"
  },
  {
    "ordered.residues": "SVMMIQVMHDLAKIRAEYELREMLLRLLEEIF [Peptide R2-8]",
    "β2-arrestin": "++"
  },
  {
    "ordered.residues": "AVAEIQLMHQRAKWKLELELKAFLDQILKDVL [Peptide R2-36]",
    "β2-arrestin": "++"
  },
  {
    "ordered.residues": "AVAEIQLMHQRAKWKLELELKEKIRKLLEDLL [Peptide R2-29]",
    "β2-arrestin": "++"
  },
  {
    "ordered.residues": "AVAEIQLMHQRAKWKILEELLKILIDLLKQYI [Peptide R2-48]",
    "β2-arrestin": "++"
  }
]

====

- study.target: PTHR1 (Homo sapiens)
- test.name: cAMP accumulation assay (HTRF) in CHO-K1/Ga15/PTHR1 cells
- Assay type: cell-based
- Set-up: host or cells: CHO-K1 (recombinant line CHO-K1/Ga15/PTHR1)
- run.parameters: cAMP assay; fitted dose-response slope
Where no end group is shown, it is not given here.
−log10Slope for assorted sequences
observed.property: −log10Slope

[
  {
    "ordered.residues": "GIAVITLMVLRALLELQEIGRKITLELLKEYI [Peptide R2-51]",
    "observed.property": "−log10Slope",
    "recorded.measurement": 10.26
  },
  {
    "ordered.residues": "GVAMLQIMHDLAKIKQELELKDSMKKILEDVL [Peptide R2-50]",
    "observed.property": "−log10Slope",
    "recorded.measurement": "−8.416"
  },
  {
    "ordered.residues": "VDFEIQLMQQRAQWIADYRIREFLDKLIAEIF [Peptide R1-94]",
    "observed.property": "−log10Slope",
    "recorded.measurement": "−3.981"
  },
  {
    "ordered.residues": "AVAEIQLMHQRAKWRAEYELREMLLRLLEEIF [Peptide R1-96]",
    "observed.property": "−log10Slope",
    "recorded.measurement": "−3.352"
  },
  {
    "ordered.residues": "GVAELQLMHDLAKIKLELELKVKLLEILKDVY [Peptide R2-49]",
    "observed.property": "−log10Slope",
    "recorded.measurement": "−5.638"
  },
  {
    "ordered.residues": "GIAVITLMLLRAYLELLEELVKILHELLRRYH [Peptide R2-52]",
    "observed.property": "−log10Slope",
    "recorded.measurement": "−3.437"
  },
  {
    "ordered.residues": "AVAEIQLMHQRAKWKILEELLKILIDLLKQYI [Peptide R2-48]",
    "observed.property": "−log10Slope",
    "recorded.measurement": "−14.2687"
  },
  {
    "ordered.residues": "AVAEIQLMHQRAKWELEFELFREFLKLLVDFF [Peptide R1-97]",
    "observed.property": "−log10Slope",
    "recorded.measurement": "−14.176"
  },
  {
    "ordered.residues": "AVAEIQLMHQRAKWELEYELFEMFLKLLEEIF [Peptide R1-100]",
    "observed.property": "−log10Slope",
    "recorded.measurement": "−12.0796"
  }
]

====

EC50 for assorted sequences
- study.target: PTHR1 (Homo sapiens, UniProt Q03431)
- test.name: cAMP accumulation assay (HTRF) in CHO-K1/Ga15/PTHR1 cells
- Format: cell-based
- Design: host or cells: CHO-K1 (recombinant line CHO-K1/Ga15/PTHR1)
- run.parameters: cAMP assay; fitted dose-response curve; read-out: −log10EC50 (converted)
Where no end group is shown, it is not given here.
observed.property: EC50 (nM)

[
  {
    "ordered.residues": "AVAEIQLMHQRAKWELEFELFREFLKLLVDFF [Peptide R1-97]",
    "recorded.measurement": 58.7
  },
  {
    "ordered.residues": "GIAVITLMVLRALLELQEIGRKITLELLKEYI [Peptide R2-51]",
    "recorded.measurement": 0.105
  },
  {
    "ordered.residues": "AVAEIQLMHQRAKWRAEYELREMLLRLLEEIF [Peptide R1-96]",
    "recorded.measurement": 9.86
  },
  {
    "ordered.residues": "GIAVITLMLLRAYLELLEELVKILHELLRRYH [Peptide R2-52]",
    "recorded.measurement": 2570
  },
  {
    "ordered.residues": "VDFEIQLMQQRAQWIADYRIREFLDKLIAEIF [Peptide R1-94]",
    "recorded.measurement": 0.0736
  },
  {
    "ordered.residues": "AVAEIQLMHQRAKWELEYELFEMFLKLLEEIF [Peptide R1-100]",
    "recorded.measurement": 52.8
  },
  {
    "ordered.residues": "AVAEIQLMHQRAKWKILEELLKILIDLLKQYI [Peptide R2-48]",
    "recorded.measurement": 64
  },
  {
    "ordered.residues": "GVAELQLMHDLAKIKLELELKVKLLEILKDVY [Peptide R2-49]",
    "recorded.measurement": 1620
  },
  {
    "ordered.residues": "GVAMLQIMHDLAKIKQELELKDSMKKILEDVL [Peptide R2-50]",
    "recorded.measurement": 574
  }
]

====

- study.target: PTHR1 (Homo sapiens, UniProt Q03431)
- Sequence (Q03431 27-593): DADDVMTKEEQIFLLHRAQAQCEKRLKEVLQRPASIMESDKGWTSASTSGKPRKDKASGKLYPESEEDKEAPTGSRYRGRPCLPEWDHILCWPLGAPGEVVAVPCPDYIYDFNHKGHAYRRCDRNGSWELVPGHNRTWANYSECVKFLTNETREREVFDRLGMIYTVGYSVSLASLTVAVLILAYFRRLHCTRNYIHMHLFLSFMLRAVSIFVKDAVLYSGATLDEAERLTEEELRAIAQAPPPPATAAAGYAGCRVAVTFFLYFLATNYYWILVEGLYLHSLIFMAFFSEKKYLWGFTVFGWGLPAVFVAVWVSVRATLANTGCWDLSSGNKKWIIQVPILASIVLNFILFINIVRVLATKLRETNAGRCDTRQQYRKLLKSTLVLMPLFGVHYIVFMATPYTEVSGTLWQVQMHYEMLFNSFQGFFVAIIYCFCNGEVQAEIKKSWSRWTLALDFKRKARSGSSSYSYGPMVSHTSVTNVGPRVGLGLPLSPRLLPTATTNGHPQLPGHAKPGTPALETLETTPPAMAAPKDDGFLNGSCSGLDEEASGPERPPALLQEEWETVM
- test.name: cAMP accumulation assay (HTRF) in CHO-K1/Ga15/PTHR1 cells
- Type: cell-based
- Design: host or cells: CHO-K1 (recombinant line CHO-K1/Ga15/PTHR1)
pEC50: −log10 of the molar value. Where no end group is shown, it is not given here.
Record 1 (yes) whenever pEC50 is at 10 or higher; record 0 (no) when lower.

[
  {
    "ordered.residues": "AVAEIQLMHQRAKWDVLIELAKLLAELLRRYH [Peptide R2-47]",
    "qualitative.label": "0 (no)"
  },
  {
    "ordered.residues": "GVAMLQILHDKAKVRAEYELREMLLRLLEEIF [Peptide R2-11]",
    "qualitative.label": "0 (no)"
  },
  {
    "ordered.residues": "GIAVLTILDLRAKLRAEYELREMLLRLLEEIF [Peptide R2-14]",
    "qualitative.label": "1 (yes)"
  },
  {
    "ordered.residues": "GLAALTIGLLRAKLRAEYELREMLLRLLEEIF [Peptide R2-24]",
    "qualitative.label": "1 (yes)"
  },
  {
    "ordered.residues": "AVAEIQLMHQRAKWKLELELKEKIRKLLEDLL [Peptide R2-29]",
    "qualitative.label": "0 (no)"
  }
]
